Exercise: for every item that follows, state its recorded z-score.
# Target System: NADPH oxidase 5 (Homo sapiens) (UniProt Q96PH1)
# Sequence (Q96PH1 whole entry, looked up): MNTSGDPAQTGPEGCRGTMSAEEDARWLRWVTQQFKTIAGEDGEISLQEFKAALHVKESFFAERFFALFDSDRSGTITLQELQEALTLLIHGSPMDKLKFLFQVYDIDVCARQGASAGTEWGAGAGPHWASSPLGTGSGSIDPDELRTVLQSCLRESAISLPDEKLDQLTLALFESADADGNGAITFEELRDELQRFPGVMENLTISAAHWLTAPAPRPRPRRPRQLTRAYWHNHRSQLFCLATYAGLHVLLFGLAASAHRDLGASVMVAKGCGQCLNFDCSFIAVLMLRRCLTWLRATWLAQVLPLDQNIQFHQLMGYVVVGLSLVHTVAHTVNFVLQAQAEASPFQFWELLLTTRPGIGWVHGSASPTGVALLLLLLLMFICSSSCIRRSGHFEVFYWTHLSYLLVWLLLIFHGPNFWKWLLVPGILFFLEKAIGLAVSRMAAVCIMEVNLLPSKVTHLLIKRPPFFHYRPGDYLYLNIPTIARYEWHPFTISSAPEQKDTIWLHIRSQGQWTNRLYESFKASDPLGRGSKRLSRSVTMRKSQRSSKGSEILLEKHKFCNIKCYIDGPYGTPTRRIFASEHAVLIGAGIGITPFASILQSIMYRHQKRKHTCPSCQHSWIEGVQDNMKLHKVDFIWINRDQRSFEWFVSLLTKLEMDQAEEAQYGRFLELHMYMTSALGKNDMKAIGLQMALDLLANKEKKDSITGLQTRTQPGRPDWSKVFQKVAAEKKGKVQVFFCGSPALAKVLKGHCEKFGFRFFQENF
# Measurement Description: NOX5-dependent H2O2 signal modulators, primary screen, NOX inhibitor project, cell-based, HEK293-NOX5, Amplex Red fluorescence (AID 1161)
# Run Conditions: HEK293-NOX5, ionomycin, 45 min, higher = more signal

INSERT INTO results (test_smiles, value_reported) VALUES
  ('CC(C)(C)OC(=O)CC[C@]1(C(=O)N2CCOCC2)N=C(c2ccc(OCCCO)cc2)O[C@H]1c1ccccc1', -0.474),
  ('C=CCN1C(=O)[C@@]2(O[C@@H](CCO)[C@H]([Si](C)(C)c3ccc(OC)cc3)[C@H]2C)c2cc(N3C(=O)c4ccccc4Oc4ccccc43)ccc21', -0.54),
  ('O=C1O[C@@H](c2ccccc2)[C@@H](c2ccccc2)N2[C@@H](c3ccccc3OCCO)[C@]3(C(=O)Nc4ccc(C#CC5=CCCCC5)cc43)[C@@H](C(=O)NC[C@H](O)c3ccccc3)[C@H]12', 2.55);

Below: the item to evaluate.
Inquiry: Recall the recorded z-score for COCCCNC(=O)[C@@]1(Sc2ccc(C)cc2)CC(=O)N(Cc2cc(C(F)(F)F)cc(C(F)(F)F)c2)[C@@H]1c1ccc(CO)cc1 with NADPH oxidase 5 (Homo sapiens) (UniProt Q96PH1) and state it.
Reply text: 0.581
